Target Entity: T1, cynomolgus monkey 5T4 antigen (cynomolgus monkey, UniProt Q4R8Y9 35-420)
T1 construct: whole, on cells; also called cyno 5T4
T1 sequence (looked up): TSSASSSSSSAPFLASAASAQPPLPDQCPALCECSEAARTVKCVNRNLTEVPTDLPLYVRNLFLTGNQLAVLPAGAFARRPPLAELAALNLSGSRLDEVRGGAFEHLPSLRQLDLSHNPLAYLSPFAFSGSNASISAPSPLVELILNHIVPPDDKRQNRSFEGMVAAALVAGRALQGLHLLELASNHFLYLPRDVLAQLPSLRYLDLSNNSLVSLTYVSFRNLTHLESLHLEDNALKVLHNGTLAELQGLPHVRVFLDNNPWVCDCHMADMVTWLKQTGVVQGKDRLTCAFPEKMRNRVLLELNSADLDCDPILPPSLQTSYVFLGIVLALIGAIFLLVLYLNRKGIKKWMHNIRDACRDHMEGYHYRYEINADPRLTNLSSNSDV
Measurement Description: flow cytometry, CHOZN cells expressing cyno 5T4
Overview of reported EC50 across a group of binders:
Give the value, in units of µg/mL, as a plain number.

Reference set, count: 2
Binder	Unit Abbrev	EC50
chimeric anti-5T4 monoclonal antibody 825 (antibody, human IgG1, V domains shown, also called clone 825) VH: QSVEESGGRLVTPGTPLTLTCTVSGIDLSSYGMGWVRQAPGKGLEYIGIISRNSVTYYATWAKGRFTISKTSTTVDLKMTSPTTEDTATYFCARRATYSGALGYFDIWGPGTLVTVSF VL: GYDMTQTPASVSAAVGGTVTINCQASENIYSTLAWYQQKPGQPPKVLIYDAFDLASGVPSRFKGSGSGTEYTLTISGVQSDDAATYYCQQGYSGTNVDNAFGGGTEVVVK	µg/mL	0.14
chimeric anti-5T4 monoclonal antibody 847 (antibody, human IgG1, V domains shown) VH: QSVEESGGRLVTPGTPLTLTCTVSGFSLSSYDMSWVRQAPGKGLEYIGYINSDGSAYYASWAKGRFTISKTSSTTVDLKITSPTTEDTATYFCARDAGSTYLYGMDPWGPGTLVTVSS VL: DVVMTQTPASVSEPVGGTVTINCQASQSIYSYLAWYQQKPGQRPKLLIYAASTLASGVSSRFKGSGSGTQFTLTISDLESADAATYYCQCTYYGGTFNTFGGGTEVVVK	µg/mL	0.2

Okay, next one:
Inquiry: For chimeric anti-5T4 monoclonal antibody 845 (antibody, human IgG1, V domains shown) VH: QSLEESGGRLVTPGTPLTLTCTVSGIDLSSYTMNWVRQAPGKGLEWIGVITSHNTYYASWAKGRFTISKTSTTVDLKITSPTTEDTATYFCARSNYGSTIYYMGGMDPWGPGTLVTVSS VL: DVVMTQTPASVSAAVGGTVTINCQASQSIGSYLAWYQHQPGQPPKLLIYSASTLESGVSSRFEGSRSGTEYTLTISDLDSADAATYYCQCTDYGASYLGAFGGGTEVVVK , what is its reported EC50?
Reply text: 0.17
